Reference source: patent US6472348B1

- System: corn (Ze)
- assay.details: Test Example 7: crop plant selectivity by upland field soil treatment (corn), phytotoxicity
- Assay type: in vivo
- Parameters: scale not given here
- measurement.setup: dose 6.3 g ai/10a, 21st day after application
observed.property: Phytotoxicity Ze

Illustrative cases are given below, each with its answer.
>>> print(df.to_string())
                              line_notation  target_system  observed_property  observed_result
0  CCc1cc2c(-c3ccc(C(F)(F)F)n(C)c3=O)c(F)cc(Cl)c2o1      corn (Ze)   Phytotoxicity Ze                1
1  COc1cc(-c2ccc(C(F)(F)F)n(C)c2=O)c(Cl)cc1Cl      corn (Ze)   Phytotoxicity Ze                2
2  C#CCSc1cc(-c2ccc(C(F)(F)F)n(C)c2=O)c(F)cc1Cl      corn (Ze)   Phytotoxicity Ze                1
3  CC(C)ON=Cc1cc(-c2ccc(C(F)(F)F)n(C)c2=O)c(F)cc1Cl      corn (Ze)   Phytotoxicity Ze                1
4  Cn1c(C(F)(F)F)ccc(-c2cc(OCC(F)F)c(Cl)cc2F)c1=O      corn (Ze)   Phytotoxicity Ze                1
5  CSc1cc(-c2ccc(C(F)(F)F)n(C)c2=O)c(F)cc1Cl      corn (Ze)   Phytotoxicity Ze                1

Ask: Please give measured Phytotoxicity Ze of the following entry: `Cn1c(C(F)(F)F)ccc(-c2cc(OCC3CC3)c(Cl)cc2F)c1=O`
Reply: 1

Ask: Please give measured Phytotoxicity Ze of the following entry: `C=CCOc1cc(-c2ccc(C(F)(F)F)n(C)c2=O)c(F)cc1Cl`
Reply: 1

Ask: Please give measured Phytotoxicity Ze of the following entry: `C#CCOc1cc(-c2ccc(C(F)(F)F)n(C)c2=O)c(F)cc1Cl`
Reply: 2
